tested on: 786-0; assay: NCI tumour cell line growth inhibition, 48 h
Activity calls are given as the source filed them. No stated cut-off is given here; in the data, active = GI50 up to about 1.1 µM and inactive = higher.
observable: GI50

OC1C2CCCCN2C[C@@H](O)[C@H]1O (stereo partly specified)	> 100 µM (inactive)
COc1ccc(C(=O)N2CCc3c([nH]c4ccccc34)C2C(=O)O)o1 (stereo unspecified)	> 10 µM (inactive)
COC(=O)/C=C(\S/C(=C(/c1ccccc1)n1cc(C(=O)OC)c(C(=O)OC)n1)c1ccccc1)C(=O)OC	4.79 µM (inactive)
CCCCSCc1nc2nc(Cl)c(Cl)nc2[nH]1	25.6 µM (inactive)
Cc1cc(O)c(C(O)c2ccccn2)cc1O (stereo unspecified)	19.1 µM (inactive)

Next up:
Dear colleague, I am looking for the recorded GI50 of the following molecule: O=C1C2=C(N[C@@H](c3ccccc3)[C@H](c3ccccc3)N2)C(=O)c2ccccc21
76.4 µM (inactive)

Where these numbers come from: ChEMBL document CHEMBL1201862
